Target: T1, C-terminal truncated RSV F protein, secreted from recombinant baculovirus-infected cells (respiratory syncytial virus (strain not …, UniProt P03420 26-526))
T1 construct: also called F antigen of RSV
T1 sequence (P03420 26-526): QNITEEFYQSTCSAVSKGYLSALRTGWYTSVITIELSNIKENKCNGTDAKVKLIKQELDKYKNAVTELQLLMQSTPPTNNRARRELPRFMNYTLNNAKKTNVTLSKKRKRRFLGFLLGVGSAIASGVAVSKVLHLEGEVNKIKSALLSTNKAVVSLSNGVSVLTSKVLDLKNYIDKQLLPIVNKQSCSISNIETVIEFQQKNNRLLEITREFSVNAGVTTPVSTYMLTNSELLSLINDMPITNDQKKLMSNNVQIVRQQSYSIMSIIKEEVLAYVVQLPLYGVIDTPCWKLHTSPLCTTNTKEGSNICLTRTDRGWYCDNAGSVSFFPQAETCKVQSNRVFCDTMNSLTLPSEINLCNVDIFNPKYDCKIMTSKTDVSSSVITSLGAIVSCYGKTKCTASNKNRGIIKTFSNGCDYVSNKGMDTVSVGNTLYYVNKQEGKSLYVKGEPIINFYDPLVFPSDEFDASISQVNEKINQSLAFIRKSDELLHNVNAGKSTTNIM
Test: SPR (BIAcore), F protein immobilized, Fab injected
Measured koff by item

A selection of reference data follows.
>>> result("Clone 12 (Fab) (Fab, V domains shown) VH: QVTLRESGPALVKPTQTLTLTCTFSGFSLSTAGMSVGWIRQPPGKALEWLADIWWDGKKHYNPSLKDRLTISKDTSKNQVVLKVTNMDPADTATYYCARDMIFNFYFDVWGQGTTVTVSS VL: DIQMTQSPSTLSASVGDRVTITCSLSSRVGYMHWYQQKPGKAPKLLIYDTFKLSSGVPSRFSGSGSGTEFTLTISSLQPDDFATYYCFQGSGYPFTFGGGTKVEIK")
"0.000453 s⁻¹"
>>> result("Clone 1 (Fab) (Fab, V domains shown) VH: QVTLRESGPALVKPTQTLTLTCTFSGFSLSTAGMSVGWIRQPPGKALEWLADIWWDDKKDYNPSLKSRLTISKDTSKNQVVLKVTNMDPADTATYYCARDMITNFYFDVWGQGTTVTVSS VL: DIQMTQSPSTLSASVGDRVTITCSASSSVGYMHWYQQKPGKAPKLLIYDTFKLTSGVPSRFSGSGSGTEFTLTISSLQPDDFATYYCFQGSGYPFTFGGGTKVEIK")
"0.000326 s⁻¹"

// fetch koff given entry Clone 8 (Fab) (Fab, V domains shown) VH: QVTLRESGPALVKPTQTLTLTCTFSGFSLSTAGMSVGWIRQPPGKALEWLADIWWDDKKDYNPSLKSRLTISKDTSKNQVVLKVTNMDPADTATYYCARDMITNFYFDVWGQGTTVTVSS VL: DIQMTQSPSTLSASVGDRVTITCSASSSVGYMHWYQQKPGKAPKLLIYDTFRLASGVPSRFSGSGSGTEFTLTISSLQPDDFATYYCFQGSGYPFTFGGGTKVEIK
0.000273 s⁻¹
